Attribution: PubChem BioAssay

- test: HepG2 cytotoxicity, primary screen, cytotoxicity control for P. falciparum antimalarial project, cell-based, ATP luminescence (AID 2303);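 further: 0% = DMSO wells and 100% = digitonin-killed cells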
- condition_notes: HepG2 viability, 24-48 h, at 10 µM
The source made the active and inactive calls.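 How the source made its calls: active means inhibition above 50%; inactive means the rest.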
Lab note: assign the record to one of active, inactive

Solved cases below.
{"columns": ["molecule", "answer_label"],
 "data": [
  ["CC(C)(CNC(=O)[C@@H]1CCCCN1)c1nc(-c2ccc(Cl)c(O)c2)c(-c2ccncc2)[nH]1", "inactive"],
  ["Fc1cc(Cl)ccc1Nc1ccnc2cc(-c3ccc(CNCCN4CCOCC4)o3)ccc12", "inactive"],
  ["Cc1cnc(NCC2CCCCC2)nc1NCC(=O)Nc1ccccc1", "inactive"],
  ["CC(C)Cn1c(N)cc(=O)n(C)c1=O", "inactive"],
  ["CN(C)Cc1cccc(-c2ccc(NC(=O)c3ccc4c(=O)n(Cc5cnn(C)c5)cnc4c3)cc2)c1", "inactive"]
]}

Q) Per the records of this test, what outcome belongs to Cc1c(F)cc(C(=O)NC2CC2)cc1-c1ccc2c(cnn2S(=O)(=O)c2ccc(F)c(F)c2)c1 ?
A) inactive

Q) Query c1ccc(Oc2ccc(Nc3ccnc(Nc4ccc5cn[nH]c5c4)n3)cc2)cc1 next
A) inactive

Q) Also CCOc1ccc(C(C)NC(=O)c2cc(Cl)ccc2OC)cc1OCC (stereo not given) ?
A) inactive

Q) Then COc1ccc(Cl)cc1N1CCN(CCCNC(=O)c2ccc(-c3nc4ccncc4[nH]3)c(Br)c2)CC1 ?
A) inactive

Q) And then CC1(CCCCN2CCC(c3c[nH]c4cnccc34)CC2)C(=O)Nc2cccc(Cl)c21 (stereo not given) , what is it?
A) inactive

Q) Follow-up item: CN(C)CCNCc1nc(-c2ccc3c(Nc4ccc(Oc5ccccc5)cc4)ccnc3c2)cs1
A) inactive

Q) Note, next up: CS(=O)(=O)Cc1ccc(Nc2nccc(-c3c(-c4cccc(C(=O)Nc5c(F)cccc5F)c4)nn4ccccc34)n2)cc1
A) active

Q) Another: Cc1ccc(C(=O)N2CCN(Cc3nccs3)CC2)cc1
A) inactive

Q) And the next one, Cc1[nH]n(-c2cccc(Cl)c2)c(=O)c1-c1ccc(Cl)cc1 ?
A) inactive

Q) Do the same for Cc1ccc(Nc2c3ccccc3nc3ccc(C)cc23)cc1 please
A) inactive

Q) Would you mind doing CCOC(=O)c1ccc(NC(=O)N(Cc2ccc(-c3ccc(CN4CCNCC4)cc3)cc2)Cc2cccnc2)cc1 as well?
A) inactive

Q) Ok, now CCc1cc(Br)c2c(c1)C(NCCCNc1cc(=O)c3ccccc3[nH]1)CCN2 (stereo not given)
A) inactive

Q) Cool, now O=C(/C=C/c1ccc(Cl)c(Cl)c1)NCCCCCN1CCCC(CNC(=O)c2sc3ccccc3c2Cl)C1 (stereo not given)
A) inactive

Q) Try this molecule next: CCCCCOc1c(CCC)cc(Cc2cnc(N)nc2N)cc1CCC
A) active

Q) Do the same for CCCNCc1ccc(-c2ccc(CN(C(=O)c3nn(-c4ccccc4)nc3C)C3CC3)cc2)nc1 please
A) inactive

###

- Test system: F380Y/beta1
- test: modulators of BK channel variants, profiling panel, selectivity assay, cell-based, U2OS BacMam, thallium flux, beta subunits (AID 1259406);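 further: initial slope of Thallos dye fluorescence rise after thallium is added; log ratio against the mean of 0.3% DMSO vehicle wells on the same plate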
- condition_notes: at 30 µM
Calls of active or inactive are those of the source.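 Rule for the calls: active = thallium flux through the channel raised or lowered by more than 3 SD from vehicle-only wells, actives on both sides; inactive = the rest.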
Respond using exactly one of the listed classes: active, inactive

Study these solved cases before continuing.
{"columns": ["compound", "answer_label"],
 "data": [
  ["CN(C)C=Nc1cc(Cl)c(-n2cccc2)cc1Oc1ccc(Cl)cc1", "inactive"],
  ["Cc1oc(S(=O)(=O)N2CCOCC2)cc1C(=O)Nc1ccc(F)cc1", "inactive"],
  ["O=C(O)c1nnn(-c2ccccc2Oc2ccc(Cl)cc2Cl)c1-c1ccccc1", "active"]
]}

Q) Query: recorded result category for CC(C)=CC(C)=NNc1c([N+](=O)[O-])cc(C(F)(F)F)cc1[N+](=O)[O-] in this test
A) inactive

Q) // same read-out, input: N=c1c(C(N)=O)cc2c(=O)n3ccccc3nc2n1Cc1ccco1
A) inactive

Q) Request: CCCCCCCCCCCC(=O)N1CC(=O)NC(=O)C1
A) inactive

Q) Ok, now Cc1cc(Sc2nnc(N=CN(C)C)s2)c2ccccc2n1
A) inactive

Q) Would you mind doing CO[C@H]1/C=C/O[C@@]2(C)Oc3c(C)c(O)c4c(O)c(c(C=NN5CCN(C6CCCC6)CC5)c(O)c4c3C2=O)NC(=O)/C(C)=C\C=C\[C@H](C)[C@H](O)[C@@H](C)[C@@H](O)[C@@H](C)[C@H](OC(C)=O)[C@@H]1C as well?
A) inactive

Q) Same question, CC1(C)CC(=O)C=C(NCCCCCCCCNC2=CC(=O)CC(C)(C)C2)C1 this time
A) inactive

Q) Input O=S(=O)(CCN1CCN(Cc2ccccc2)CC1)c1ccc(F)cc1
A) inactive

Q) One more compound: CCOC(=O)c1ccc(NC(=O)CCC(=O)O)cc1
A) inactive

Q) Note, next up: CCC(C)(C)N=C(NC#N)Nc1cccnc1
A) inactive

###

- test: antimalarial activity against Dd2 strain (AID 2302);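 further: 0% = DMSO untreated growth and 100% = chloroquine plus artemisinin killed control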
- condition_notes: P. falciparum Dd2 in RBCs, LDH growth readout, 72 h; at 2 µM
Activity calls are given as the source filed them.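 Rule for the calls: active = growth inhibition above 50% at the single 2 µM test dose, taken to imply half-maximal potency below 2 µM; inactive = the rest.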
Respond with a class label; see active, inactive

Use the examples below as a reference point.
{"columns": ["compound", "answer_label"],
 "data": [
  ["CCn1c(-c2nonc2N)nc2c(-c3cccc(NC(=O)Nc4ccc(C#N)cc4)c3)ncc(OCCCN)c21", "active"],
  ["C=CCn1c(=N)n(CC(O)c2ccc(Cl)c(Cl)c2)c2ccccc21 (stereo not drawn)", "active"],
  ["N#Cc1ccc(-c2cnc3ccc(NCCc4cccnc4)nn23)cc1", "active"],
  ["O=C(/C=C/c1ccc(Cl)c(Cl)c1)NCCCCCCN1CCN(C(=O)Nc2ccc(OC(F)F)cc2)CC1", "inactive"],
  ["CCCCN(CCCC)CCCN(CCCN(CCCC)CCCC)c1cc(C)nc(Nc2ccc(Br)cc2)n1", "active"],
  ["CCN(CC)CCN(Cc1ccc(-c2ccc(C(F)(F)F)cc2)cc1)C(=O)Cn1c(CCc2ccc(F)c(F)c2F)nc(=O)c2ccc(F)cc21", "inactive"],
  ["Cc1ccc(Cn2cnc3cc(C(=O)Nc4ccc(-c5cccc(CN(C)C)c5)cc4)ccc3c2=O)o1", "inactive"],
  ["Oc1cccc(-c2cnc3ccc(NCc4ccc(F)cc4)nn23)c1", "active"]
]}

# evaluate next
Q) Would you mind telling me which call this test gave N#Cc1cnc(Nc2ccc(Oc3ccccc3)cc2)nc1Nc1cccc(S(N)(=O)=O)c1 ?
A) active

###

- test: sensitizers of A549 cells to miR-34 induction, primary screen, imaging, A549 dox-inducible miR-34, nuclei and caspase counts (AID 1347080)
- condition_notes: A549 miR-34 inducible, Hoechst nuclei count, 48 h; cell number ratio, induced over uninduced
Activity calls are given as the source filed them.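 Rule for the calls: active = compounds whose cell count with miR-34 switched on is under 0.7 times the count with it off; inactive = the rest.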
Assign a class; possible classes are 1 for active, -1 for inactive

Please review the entries below; each comes with its answer.
{"columns": ["compound", "answer_label"],
 "data": [
  ["CC(C)C[C@@H](C(=O)N[C@H](C(=O)OC1CCCC1)c1ccccc1)[C@H](O)C(=O)NO", -1],
  ["CC1(C)O[C@@H]2CC3C4C[C@H](F)C5=CC(=O)C=CC5(C)C4C(O)CC3(C)[C@]2(C(=O)CO)O1 (stereo not given in full)", -1],
  ["CN(C)c1cnccn1", -1],
  ["CC(C)(O)c1ccccc1CC[C@@H](SC1(CC(=O)O)CC1)c1cccc(/C=C/c2ccc3ccc(Cl)cc3n2)c1", -1],
  ["CC1CC2C3CCC4=CC(=O)C=CC4(C)[C@@]3(Cl)C(O)CC2(C)C1(O)C(=O)CO (stereo not given in full)", -1]
]}

Q) For this compound, state the assay outcome: CC1(C)O[C@@H]2CC3C4C[C@H](F)C5=CC(=O)CC[C@]5(C)C4[C@@H](O)C[C@]3(C)[C@]2(C(=O)CO)O1 (stereo not given in full)
A) -1

Q) Again, but for O=C(O)[C@H]1/C(=C/CO)O[C@@H]2CC(=O)N21
A) -1

Q) Same question for O=c1ncccn1[C@@H]1O[C@H](CO)[C@@H](O)[C@H]1O please.
A) -1

Q) Entry COc1ccc([C@@H]2CNC(=O)C2)cc1OC1CCCC1 please
A) -1

Q) Okay, and Cc1cc(I)ccc1Nc1c(C(=O)NOCC2CC2)cc(F)c(F)c1F ?
A) -1

Q) Further, for CC(=O)OCC(=O)[C@@]1(O)CCC2C3CCC4=CC(=O)CC[C@]4(C)C3C(=O)C[C@@]21C (stereo not given in full) ?
A) -1

Q) // query: C[n+]1ccccc1C=NO
A) -1

Q) // query: CC(C)(C)NCC(O)COc1cccc2c1CCCC2=O (stereo not given)
A) -1

Q) Now give it for C[C@H]1O[C@@H](O[C@H]2[C@@H](O)C[C@H](O[C@H]3[C@@H](O)C[C@H](O[C@H]4CC[C@]5(C)C6CC[C@]7(C)[C@@H](C8=CC(=O)OC8)CC[C@]7(O)C6CC[C@@H]5C4)O[C@@H]3C)O[C@@H]2C)C[C@H](O)[C@@H]1O (stereo not given in full) too.
A) 1
